Tested on: Streptococcus agalactiae
ASSAY_PROTOCOL: Antibacterial activity against Streptococcus agalactiae assessed as bacterial growth inhibition incubated for 18 to 24 hrs by NCCLS based assay
Type: functional
MEASUREMENT_PARAMETERS: time 18-24 hrs
Please go through the items and note down their MIC.
Answer with the number, then the unit.

Challenge: Query: MIC; subject: `C=C[C@]1(C)C[C@@H](OC(=O)CSc2ncnc(OCC)n2)[C@]2(C)[C@H](C)CC[C@]3(CCC(=O)[C@H]32)[C@@H](C)[C@@H]1O`
Response given: 0.25 µg/mL

Challenge: Input `C=C[C@]1(C)C[C@@H](OC(=O)CSc2ncnc(NCC)n2)[C@]2(C)[C@H](C)CC[C@]3(CCC(=O)[C@H]32)[C@@H](C)[C@@H]1O`
Response given: 0.013 µg/mL

Challenge: Input `C=C[C@]1(C)C[C@@H](OC(=O)CSc2ncnc(N3CCCC3)n2)[C@]2(C)[C@H](C)CC[C@]3(CCC(=O)[C@H]32)[C@@H](C)[C@@H]1O`
Response given: 0.25 µg/mL

Challenge: Input `C=C[C@]1(C)C[C@@H](OC(=O)CSc2ncnc(NCCN(C)C)n2)[C@]2(C)[C@H](C)CC[C@]3(CCC(=O)[C@H]32)[C@@H](C)[C@@H]1O`
Response given: 0.063 µg/mL

Challenge: Input `C=C[C@]1(C)C[C@@H](OC(=O)CSc2ncnc(N(C)C)n2)[C@]2(C)[C@H](C)CC[C@]3(CCC(=O)[C@H]32)[C@@H](C)[C@@H]1O`
Response given: 0.063 µg/mL

Challenge: Input `C=C[C@]1(C)C[C@@H](OC(=O)CSc2ncnc(NC)n2)[C@]2(C)[C@H](C)CC[C@]3(CCC(=O)[C@H]32)[C@@H](C)[C@@H]1O`
Response given: 0.125 µg/mL

###

Test system: Enterococcus faecalis
ASSAY_PROTOCOL: Antibacterial activity against Enterococcus faecalis assessed as bacterial growth inhibition incubated for 18 to 24 hrs by NCCLS based assay
Assay type: functional
MEASUREMENT_PARAMETERS: time 18-24 hrs
QUANTITY_KIND: MIC (µg/mL)
Your answer should be a plain number; it is taken to be in µg/mL.

Challenge: Query: MIC; subject: `C=C[C@]1(C)C[C@@H](OC(=O)CSc2ncnc(Cl)n2)[C@]2(C)[C@H](C)CC[C@]3(CCC(=O)[C@H]32)[C@@H](C)[C@@H]1O`
Response given: 32

Challenge: Input `C=C[C@]1(C)C[C@@H](OC(=O)CSc2ncnc(N)n2)[C@]2(C)[C@H](C)CC[C@]3(CCC(=O)[C@H]32)[C@@H](C)[C@@H]1O`
Response given: 16

Challenge: Input C=C[C@]1(C)C[C@@H](OC(=O)CSCCN(CC)CC)[C@]2(C)[C@H](C)CC[C@]3(CCC(=O)[C@H]32)[C@@H](C)[C@@H]1O [TIAMULIN]
Response given: 16

###

ASSAY_PROTOCOL: Cytotoxicity against HEK293T cells assessed as cell viability incubated for 6 hrs by CCK8 assay
Format: toxicity, cell-based, HEK-293T
MEASUREMENT_PARAMETERS: human
QUANTITY_KIND: CC50 at 6 h (µM)
Your answer should be a plain number; it is taken to be in µM.

Challenge: Query: CC50 at 6 h; subject: `C=C[C@]1(C)C[C@@H](OC(=O)CSc2ncnc(N(C)C)n2)[C@]2(C)[C@H](C)CC[C@]3(CCC(=O)[C@H]32)[C@@H](C)[C@@H]1O`
Response given: 50.1

###

ASSAY_PROTOCOL: Cytotoxicity against human HepG2 cells assessed as cell viability at 200 uM incubated for 6 hrs by CCK8 assay relative to control
Format: toxicity, cell-based
MEASUREMENT_PARAMETERS: read-out: Activity
QUANTITY_KIND: viability at 6 h, 200 µM (%)
Your answer should be a plain number; it is taken to be in %.

Challenge: Query: viability at 6 h, 200 µM; subject: `C=C[C@]1(C)C[C@@H](OC(=O)CSc2ncnc(N(C)C)n2)[C@]2(C)[C@H](C)CC[C@]3(CCC(=O)[C@H]32)[C@@H](C)[C@@H]1O`
Response given: 60.2

###

Tested on: Streptococcus agalactiae
ASSAY_PROTOCOL: Antibacterial activity against Streptococcus agalactiae assessed as bacterial growth inhibition incubated for 18 to 24 hrs by NCCLS based assay
Type: functional
MEASUREMENT_PARAMETERS: time 18-24 hrs
QUANTITY_KIND: MIC
Answer with the number, then the unit.

Challenge: Query: MIC; subject: `C=C[C@]1(C)C[C@@H](OC(=O)CSc2ncnc(N3CCNCC3)n2)[C@]2(C)[C@H](C)CC[C@]3(CCC(=O)[C@H]32)[C@@H](C)[C@@H]1O`
Response given: 0.25 µg/mL

Challenge: Input `C=C[C@]1(C)C[C@@H](OC(=O)CSc2ncnc(N)n2)[C@]2(C)[C@H](C)CC[C@]3(CCC(=O)[C@H]32)[C@@H](C)[C@@H]1O`
Response given: 0.125 µg/mL

Challenge: Input `C=C[C@]1(C)C[C@@H](OC(=O)CSc2ncnc(OC)n2)[C@]2(C)[C@H](C)CC[C@]3(CCC(=O)[C@H]32)[C@@H](C)[C@@H]1O`
Response given: 0.125 µg/mL

Challenge: Input `C=C[C@]1(C)C[C@@H](OC(=O)CSc2ncnc(NCCN3CCOCC3)n2)[C@]2(C)[C@H](C)CC[C@]3(CCC(=O)[C@H]32)[C@@H](C)[C@@H]1O`
Response given: 0.125 µg/mL

Challenge: Input `C=C[C@]1(C)C[C@@H](OC(=O)CSc2ncnc(OCCC)n2)[C@]2(C)[C@H](C)CC[C@]3(CCC(=O)[C@H]32)[C@@H](C)[C@@H]1O`
Response given: 8 µg/mL

###

Test system: Streptococcus agalactiae
ASSAY_PROTOCOL: Antibacterial activity against Streptococcus agalactiae assessed as bacterial growth inhibition incubated for 18 to 24 hrs by NCCLS based assay
Format: functional
MEASUREMENT_PARAMETERS: time 18-24 hrs
Please go through the items and note down their MIC.
Your answer should be a plain number; it is taken to be in µg/mL.

Challenge: Query: MIC; subject: `C=C[C@]1(C)C[C@@H](OC(=O)CSc2ncnc(N3CCOCC3)n2)[C@]2(C)[C@H](C)CC[C@]3(CCC(=O)[C@H]32)[C@@H](C)[C@@H]1O`
Response given: 0.125

Challenge: Input `C=C[C@]1(C)C[C@@H](OC(=O)CSc2ncnc(NCCNCC)n2)[C@]2(C)[C@H](C)CC[C@]3(CCC(=O)[C@H]32)[C@@H](C)[C@@H]1O`
Response given: 0.25

Challenge: Input `C=C[C@]1(C)C[C@@H](OC(=O)CSc2ncnc(Cl)n2)[C@]2(C)[C@H](C)CC[C@]3(CCC(=O)[C@H]32)[C@@H](C)[C@@H]1O`
Response given: 2

Challenge: Input `C=C[C@]1(C)C[C@@H](OC(=O)CSc2ncnc(N(CC)CC)n2)[C@]2(C)[C@H](C)CC[C@]3(CCC(=O)[C@H]32)[C@@H](C)[C@@H]1O`
Response given: 0.25

Challenge: Input `C=C[C@]1(C)C[C@@H](OC(=O)CSc2ncnc(OC3CCCC3)n2)[C@]2(C)[C@H](C)CC[C@]3(CCC(=O)[C@H]32)[C@@H](C)[C@@H]1O`
Response given: 8

Challenge: Input `C=C[C@]1(C)C[C@@H](OC(=O)CSc2ncnc(NCCN)n2)[C@]2(C)[C@H](C)CC[C@]3(CCC(=O)[C@H]32)[C@@H](C)[C@@H]1O`
Response given: 2

Challenge: Input `C=C[C@]1(C)C[C@@H](OC(=O)CSc2ncnc(NCCNC)n2)[C@]2(C)[C@H](C)CC[C@]3(CCC(=O)[C@H]32)[C@@H](C)[C@@H]1O`
Response given: 0.013

Challenge: Input `C=C[C@]1(C)C[C@@H](OC(=O)CSc2ncnc(N3CCN(C)CC3)n2)[C@]2(C)[C@H](C)CC[C@]3(CCC(=O)[C@H]32)[C@@H](C)[C@@H]1O`
Response given: 4

Challenge: Input `C=C[C@]1(C)C[C@@H](OC(=O)CSc2ncnc(NCCN3CCCC3)n2)[C@]2(C)[C@H](C)CC[C@]3(CCC(=O)[C@H]32)[C@@H](C)[C@@H]1O`
Response given: 0.125

Challenge: Input `C=C[C@]1(C)C[C@@H](OC(=O)CSc2ncnc(N3CCCCC3)n2)[C@]2(C)[C@H](C)CC[C@]3(CCC(=O)[C@H]32)[C@@H](C)[C@@H]1O`
Response given: 0.5

Challenge: Input `C=C[C@]1(C)C[C@@H](OC(=O)CSCCN(CC)CC)[C@]2(C)[C@H](C)CC[C@]3(CCC(=O)[C@H]32)[C@@H](C)[C@@H]1O`
Response given: 0.125

Challenge: Input `C=C[C@]1(C)C[C@@H](OC(=O)CSc2ncnc(OCCCC)n2)[C@]2(C)[C@H](C)CC[C@]3(CCC(=O)[C@H]32)[C@@H](C)[C@@H]1O`
Response given: 4
